# test: [total 1,2-propanediol] in aqueous ISES layer by 1H NMR
# conditionParameters: aqueous ISES layer, 1H NMR, t = 15 min
experimentalReadout: [diol] (mM) @ 15 min
Answer format: numeric, mM implied, no suffix.

# [diol] (mM) @ 15 min lookup, item CC(C)(C)c1cccc(C=NC[C@H](Cc2ccccc2)N=Cc2cccc(C(C)(C)C)c2O)c1O [Salen 3b]
96

# [diol] (mM) @ 15 min lookup, item CC(C)(C)c1cc(C=NC[C@H](Cc2ccc3ccccc3c2)N=Cc2cc(C(C)(C)C)cc(C(C)(C)C)c2O)c(O)c(C(C)(C)C)c1 [Salen 5a]
52.5

# [diol] (mM) @ 15 min lookup, item CC(C)(C)c1cccc(C=NC[C@H](Cc2ccc3ccccc3c2)N=Cc2cccc(C(C)(C)C)c2O)c1O [Salen 5b]
75.5

# [diol] (mM) @ 15 min lookup, item CC(C)(C)c1cccc(C=NC[C@@H](N=Cc2cccc(C(C)(C)C)c2O)c2ccccc2)c1O [Salen 2b]
22

# [diol] (mM) @ 15 min lookup, item Oc1c(C=NC[C@H](Cc2ccc3ccccc3c2)N=Cc2ccc3ccccc3c2O)ccc2ccccc12 [Salen 5d]
54

# [diol] (mM) @ 15 min lookup, item CC(C)(C)c1cccc(C=NC[C@H](Cc2cccc3ccccc23)N=Cc2cccc(C(C)(C)C)c2O)c1O [Salen 4b]
98

# [diol] (mM) @ 15 min lookup, item CC(C)(C)c1cc(C=NC[C@@H](N=Cc2cc(C(C)(C)C)cc(C(C)(C)C)c2O)c2ccccc2)c(O)c(C(C)(C)C)c1 [Salen 2a]
27.5

* * *

For each entry below, report its % ee of the 1,2-propanediol product, as observed by chiral HPLC (lower number) value.
# test: HKR of (±)-propylene oxide under standard neat 'Jacobsen conditions' (NMR conversion, chiral HPLC ee)
# conditionParameters: neat propylene oxide, 0.55 equiv. H2O, 0.25 mol % catalyst, 3 h reaction time; + = (S), − = (R)

# % ee of the 1,2-propanediol product, as observed by chiral HPLC (lower number) lookup, item `Oc1c(C=NC[C@H](Cc2ccccc2)N=Cc2ccc3ccccc3c2O)ccc2ccccc12`
−30 % ee

# % ee of the 1,2-propanediol product, as observed by chiral HPLC (lower number) lookup, item `Oc1c(C=NC[C@H](Cc2ccc3ccccc3c2)N=Cc2ccc3ccccc3c2O)ccc2ccccc12`
+11 % ee

# % ee of the 1,2-propanediol product, as observed by chiral HPLC (lower number) lookup, item `CC(C)(C)c1cccc(C=NC[C@H](Cc2ccccc2)N=Cc2cccc(C(C)(C)C)c2O)c1O`
+57 % ee

* * *

# test: HKR of (±)-propylene oxide under standard neat 'Jacobsen conditions' (NMR conversion, chiral HPLC ee)
# conditionParameters: neat propylene oxide, 0.55 equiv. H2O, 0.25 mol % catalyst, 3 h reaction time; + = (S), − = (R)
Mark f for % ee of the 1,2-propanediol product, as observed by chiral HPLC (lower number) values under -40 % ee, and t for everything at or above.

Test whether the compound `Oc1c(I)cc(I)cc1C=NC[C@H](Cc1ccc2ccccc2c1)N=Cc1cc(I)cc(I)c1O` records % ee of the 1,2-propanediol product, as observed by chiral HPLC (lower number) of -40 % ee or higher.
t

Test whether the compound `Oc1c(C=NC[C@@H](N=Cc2ccc3ccccc3c2O)c2ccccc2)ccc2ccccc12` records % ee of the 1,2-propanediol product, as observed by chiral HPLC (lower number) of -40 % ee or higher.
f

Test whether the compound `CC(C)(C)c1cc(C=NC[C@@H](N=Cc2cc(C(C)(C)C)cc(C(C)(C)C)c2O)c2ccccc2)c(O)c(C(C)(C)C)c1` records % ee of the 1,2-propanediol product, as observed by chiral HPLC (lower number) of -40 % ee or higher.
f

Test whether the compound `CC(C)(C)c1cccc(C=NC[C@@H](N=Cc2cccc(C(C)(C)C)c2O)c2ccccc2)c1O` records % ee of the 1,2-propanediol product, as observed by chiral HPLC (lower number) of -40 % ee or higher.
f

Test whether the compound `CC1(C)CCN2CCC(C)(C)c3c(O)c(C=NC[C@@H](N=Cc4cc5c6c(c4O)C(C)(C)CCN6CCC5(C)C)c4ccccc4)cc1c32` records % ee of the 1,2-propanediol product, as observed by chiral HPLC (lower number) of -40 % ee or higher.
f

# credit: patent US20060263895A1
